- System: NCI-H322M lung
- method_notes: NCI-60 one-dose screen, 48 h
- experimental_conditions: 10 µM unless noted
This is part of a sample that, as a whole, favours compounds with a hit. Of some 83,000 tested, about 20% had one in any assay. Calls of active or inactive are those of the source. Rule for the calls: active = growth percent below 10; inactive = the rest.
Write down the outcome that applies. Available outcomes: Yes (active), No (inactive)

Please review the entries below; each comes with its answer.
Cc1ccc(S(=O)(=O)c2nc(-c3ccccc3)oc2Sc2nc3ccccc3s2)cc1 :: No
O=C1/C=C/[C@@H](O)[C@@H]2C[C@@H](O)C[C@H]2/C=C/CCC[C@@H](O)CCO1 :: No
CN(C)CCCC1(c2ccc(F)cc2)OCc2cc(-c3ccc4cc[nH]c4c3)ccc21 (configuration not stated) :: No

Record lookup: outcome of this test for CNC(C)[C@H]1CCC2C3CC=C4C(=O)[C@@H](NC(=O)C=C(C)C)CC[C@]4(C)C3CC[C@@]21C (some centres not stated) ?
No

Record lookup: outcome of this test for CCn1cc(CNc2ccc(C(=O)Nc3cc4cc(OC)c(OC)cc4c(C)n3)cc2)cn1 ?
No

Record lookup: outcome of this test for Nc1nc(NC(=O)Nc2ccc(C(=O)O)cc2)nn1-c1ccc(S(N)(=O)=O)cc1 ?
No

Record lookup: outcome of this test for COC(=O)CC[C@@H]1O[C@@H](c2ccc(F)cc2)[C@@H](O)[C@H]1O ?
No

Record lookup: outcome of this test for NC(N)=NS(=O)(=O)c1ccc(NC2=C(I)C(=O)c3ncccc3C2=O)cc1 ?
No

Record lookup: outcome of this test for C=C(CNCCO)[C@@H]1CC[C@]2(CO)CC[C@]3(C)[C@H](CC[C@@H]4[C@@]5(C)CCC(N)C(C)(C)[C@@H]5CC[C@]43C)[C@@H]12 (some centres not stated) ?
No

Record lookup: outcome of this test for CCOC(=O)c1[nH]c2c(c1C)-c1[nH]c(=O)c(S(=O)(=O)c3ccccc3)cc1SC2 ?
No

Record lookup: outcome of this test for Fc1ccc2[nH]cc(-c3nc(-c4c[nH]c5ccncc45)cs3)c2c1 ?
Yes

Record lookup: outcome of this test for Nc1nc(N)c2c(n1)NC(c1cccc(Nc3ccnc4cc(C(F)(F)F)ccc34)c1)CC(c1ccc(Br)cc1)=N2 (configuration not stated) ?
No

Record lookup: outcome of this test for O=C(N/N=C/c1cc(Cl)ccc1O)c1ccccc1Nc1ccnc(C(F)(F)F)c1 ?
No

====

- Test system: OVCAR-4 ovarian
- method_notes: NCI-60 one-dose screen, 48 h (100 = growth as untreated, 0 = no growth, -100 = all killed)
- experimental_conditions: 10 µM unless noted
Compounds without any hit were thinned out: in the full panel of roughly 83,000, 20% have a hit.
readout_label: growth (%)
Use % as the unit, but write only the number.

COc1ccc2nc(Cl)c(/C=C3\CC(c4ccccc4)=NN(c4ccccc4)C3=O)cc2c1 :: 37.4
N#Cc1nc(-c2ccccc2)oc1S(=O)(=O)N1CCN(c2ccc(F)cc2)CC1 :: 107
CNC1=C([N+](=O)[O-])C(c2ccc(OC)cc2)C(C#N)=C(c2cccs2)O1 (centres undefined) :: 100

Shift focus to the following entry.
Give the measured growth of CCN(CC)CCCN1C(=O)c2c(c(C)c3c(oc4ccc(O)cc43)c2C)C1=O .
-35.5

====

- System: 786-0 renal
- method_notes: NCI-60 one-dose screen, 48 h (100 = growth as untreated, 0 = no growth, -100 = all killed)
- experimental_conditions: 10 µM unless noted
About 83,000 compounds went through this panel and 20% of them were active in at least one assay; those are over-represented in the sample as a whole.
We use 50% as the dividing line for growth: on or above the line is y, below is n.

COc1ccc(/C=C(/C(=O)n2cnnn2)c2cc(OC)c(OC)c(OC)c2)cc1 :: n
CCOC(=O)c1c(C)nc2c(c1N)CC(=O)N2Cc1ccc(OC)cc1 :: n
CN(CCCNC(=O)Cc1ccc2ccc3cccc4ccc1c2c34)CCCNc1cc(-c2ccc3ccccc3c2)nc2ccccc12 :: n
COc1ccc(C(O)c2cc3c(N)c(C(=O)Nc4cccc(Cl)c4C)sc3nc2C)cc1 (centres undefined) :: n
COc1ccc(/C=C/C(c2cc(OC)c(OC)c(OC)c2)n2cncn2)cc1 (centres undefined) :: n

Check the entry O=C(NNC(=O)c1nc2cc(F)ccc2n2cccc12)c1cnccn1 : does growth equal or exceed 50%?
y

Check the entry O=C1c2ccccc2C(=O)c2c1c(C(=O)NCc1ccccc1)c1ccccn21 : does growth equal or exceed 50%?
y

====

- System: EKVX NSCLC
- method_notes: NCI-60 one-dose screen, 48 h (100 = growth as untreated, 0 = no growth, -100 = all killed)
- experimental_conditions: 10 µM unless noted
Compounds without any hit were thinned out: in the full panel of roughly 83,000, 20% have a hit.
readout_label: growth (%)
Use % as the unit, but write only the number.

CCN1C(=O)N(CC)C2C1NN=c1s/c(=C\c3cnc(C)n3C)c(=O)n12 (stereo not drawn) :: 49.7
Cc1c(Cl)cccc1C(=O)Nc1nc2c(s1)CN(C(=O)c1ccc(C(F)(F)F)cc1)CC2 :: 49.5

Shift focus to the following entry.
GET /values?readout=growth&system=EKVX NSCLC&item= Nc1ccc(-c2csc(-n3[nH]c(=O)ccc3=O)n2)cc1
88.4

====

- Test system: A498 renal
- method_notes: NCI-60 one-dose screen, 48 h
- experimental_conditions: 10 µM unless noted
- Description: Growth inhibition of the A498 human tumor cell line is measured as a screen for anti-cancer activity. Cells are grown in 96 well plates and exposed to the test compound for 48 hours. Compounds are tested at a single concentration, which is 10^-5 M for most compounds. The reported endpoint is percent growth (GI% or GIPRCNT), where numbers from 0 - 100% represent growth inhibition, and numbers from -100% - 0 represent cell death. For example, a value of 40 represents 60% growth inhibition. […]
The panel holds about 83,000 compounds, 20% with a hit somewhere; the sample as a whole holds those more often. Active and inactive are the calls of the source. Rule for the calls: active = growth percent below 10; inactive = the rest.
Write down the outcome that applies. Available outcomes: yes = active, no = inactive

Please review the entries below; each comes with its answer.
COc1ccc(/C=C/C(=O)c2cc(OC)c(OC)c(OC)c2)cc1OCC(=O)Nc1nc2ccc(OC(F)(F)F)cc2s1 :: no
Cc1c2ccncc2c(C)c2c1c1cc(CO)ccc1n2C :: yes
CC(C)(C)n1cc(-c2ccnc(NCCCNS(=O)(=O)c3ccc(C(F)(F)F)cc3)c2)c(-c2cccc(F)c2)n1 :: no
O=[N+]([O-])c1ccc(-c2cn3nc(-c4c[nH]c5ccccc45)sc3n2)cc1 :: no
CCOC(=O)C#Cc1c(C(=O)OCC)nnn1Cc1ccc(C(F)(F)F)cc1 :: no

Record lookup: outcome of this test for C#CCOc1cccc(-c2ncnc3cc(NC(=O)C=C)ccc23)c1 ?
no

Record lookup: outcome of this test for O=C(O)c1ccc(-c2ccc(/C=N/Nc3nc(Nc4ccccc4)nc(N4CCCCC4)n3)o2)cc1 ?
no

Record lookup: outcome of this test for O=C(Oc1ccc(CCl)cc1)c1ccccc1 ?
yes

Record lookup: outcome of this test for Nc1nc(NC(=O)Nc2ccc(C(=O)O)cc2)nn1-c1ccc(S(N)(=O)=O)cc1 ?
no

Record lookup: outcome of this test for C=CC(=O)Nc1ccc(Oc2nccc(Nc3nnc(-c4ccc(C)cc4)s3)n2)cc1 ?
no

====

- Test system: ACHN renal
- method_notes: NCI-60 one-dose screen, 48 h
- experimental_conditions: 10 µM unless noted
This is part of a sample that, as a whole, favours compounds with a hit. Of some 83,000 tested, about 20% had one in any assay. Active and inactive are the calls of the source. How the source made its calls: active means growth percent below 10; inactive means the rest.
Write down the outcome that applies. Available outcomes: active, inactive

O=C(Oc1ccc(CCl)cc1)c1ccccc1 :: active
COc1cnc2c(c1)C(=O)c1c-2n(CCCCl)c(=O)c2ccncc12 :: inactive

Continue with the compound presented below.
Record lookup: outcome of this test for CCOC(=O)C#Cc1c(C(=O)OCC)nnn1Cc1ccc(C(F)(F)F)cc1 ?
active

====

- Tested on: SNB-19 CNS
- method_notes: NCI-60 one-dose screen, 48 h (100 = growth as untreated, 0 = no growth, -100 = all killed)
- experimental_conditions: 10 µM unless noted
This is part of a sample that, as a whole, favours compounds with a hit. Of some 83,000 tested, about 20% had one in any assay.
Could you mark each record Yes if its growth falls strictly under 60%, and No if it equals or exceeds it?

Strictly below 60%: is that where growth of CS(=O)(=O)c1ccc(NC(=O)c2ccccc2)nc1 sits?
No

====

- System: PC-3 prostate
- method_notes: NCI-60 one-dose screen, 48 h (100 = growth as untreated, 0 = no growth, -100 = all killed)
- experimental_conditions: 10 µM unless noted
Compounds without any hit were thinned out: in the full panel of roughly 83,000, 20% have a hit. The source made the active and inactive calls. The calls were made as follows: active = growth percent below 10; inactive = the rest.
readout_label: growth

COc1ccc(CCN2C(=O)/C(=C/c3ccc(C4Oc5ccccc5C5CC(c6ccccc6)=NN54)cc3)SC2=S)cc1 (stereo not drawn) :: 98% (inactive)

Give the measured growth of C=C(C)[C@@H]1CC[C@]2(C)[C@H](CC=C3[C@@H]4CC(C)(C)CC[C@]4(CO)CC[C@]32C)[C@@]1(C)CCCN .
21.3% (inactive)

Give the measured growth of CN1CCN(Cc2ccc(NC(=O)c3cncc(C#Cc4cnc(N)c5ncccc45)c3)cc2C(F)(F)F)CC1 .
13.6% (inactive)

Give the measured growth of CC1(C)OB(O)c2cc(-c3nc4ccc5[nH]ncc5c4c4c3CCCC4)ccc21 .
41.3% (inactive)
